# Tested on: Staphylococcus aureus
# PROTOCOL: Antibacterial activity was determined against gram positive organism, Staphylococcus aureus UC76
# Format: functional
# EXPERIMENTAL_PARAMETERS: Staphylococcus aureus; read-out: MIC
Listing: MIC of selected molecules

MOLECULE | ASSAYED_TARGET | MIC / µg/mL
Nc1c(F)c(N2CCC(N)C2)cc2c1c(=O)c(C(=O)O)cn2C1CC1 (stereo not given) | Staphylococcus aureus | 0.025
CCn1cc(C(=O)O)c(=O)c2c(O)c(F)c(N3CCNCC3)c(F)c21 | Staphylococcus aureus | 1.6
CCNCC1CCN(c2c(F)c(N)c3c(=O)c(C(=O)O)cn(CC)c3c2F)C1 (stereo not given) | Staphylococcus aureus | 0.1
Nc1c(F)c(N2CCNCC2)c(F)c2c1c(=O)c(C(=O)O)cn2C1CC1 | Staphylococcus aureus | 0.013
CC1CN(c2c(F)cc3c(=O)c(C(=O)O)cn(C4CC4)c3c2Cl)CCN1 (stereo not given) | Staphylococcus aureus | 0.05

---

# System: Bacteria
# PROTOCOL: MIC ratio measured as the mean MICs of gram-negative bacteria
# Type: functional
PROPERTY_MEASURED: Geometric mean MIC over Gram-negative bacteria (µg/mL)

COMPOUND | ASSAYED_TARGET | RESULT_VALUE
CC1CN(c2c(F)c(N)c3c(=O)c(C(=O)O)cn(C4CC4)c3c2F)CCN1 (stereo not given) | Bacteria | 0.038
CC1CN(c2cc3c(cc2F)c(=O)c(C(=O)O)cn3C2CC2)CC(C)N1 (stereo not given) | Bacteria | 0.076
CCNCC1CCN(c2c(F)c(N)c3c(=O)c(C(=O)O)cn4c3c2OCC4C)C1 (stereo not given) | Bacteria | 2.09
NC1CCN(c2c(F)cc3c(=O)c(C(=O)O)cn(C4CC4)c3c2F)C1 (stereo not given) | Bacteria | 0.029
C[C@@H]1CN(c2c(F)c(N)c3c(=O)c(C(=O)O)cn(C4CC4)c3c2F)C[C@H](C)N1 [SPARFLOXACIN] | Bacteria | 0.087
CCNCC1CCN(c2cc3c(cc2F)c(=O)c(C(=O)O)cn3C2CC2)C1 (stereo not given) | Bacteria | 0.46
CCn1cc(C(=O)O)c(=O)c2cc(F)c(N3CCNCC3)c(Cl)c21 | Bacteria | 0.3
CCNCC1CCN(c2cc3c(c(N)c2F)c(=O)c(C(=O)O)cn3CC)C1 (stereo not given) | Bacteria | 4.15
CCNCC1CCN(c2c(F)cc3c(=O)c(C(=O)O)cn(C4CC4)c3c2F)C1 (stereo not given) [PD-117558] | Bacteria | 0.13
CCn1cc(C(=O)O)c(=O)c2cc(F)c(N3CC(C)NC(C)C3)c(Cl)c21 (stereo not given) | Bacteria | 4.14
CCn1cc(C(=O)O)c(=O)c2c(N)c(F)c(N3CC(C)NC(C)C3)c(Cl)c21 (stereo not given) | Bacteria | 4.18
Nc1c(F)c(N2CCC(N)C2)cc2c1c(=O)c(C(=O)O)cn2C1CC1 (stereo not given) | Bacteria | 0.038
CCn1cc(C(=O)O)c(=O)c2cc(F)c(N3CCNC(C)C3)c(Cl)c21 (stereo not given) | Bacteria | 0.6
CCNCC1CCN(c2c(F)c(N)c3c(=O)c(C(=O)O)cn(CC)c3c2Cl)C1 (stereo not given) | Bacteria | 6.28
CCn1cc(C(=O)O)c(=O)c2cc(F)c(N3CCC(N)C3)cc21 (stereo not given) | Bacteria | 0.13
CCn1cc(C(=O)O)c(=O)c2c(O)c(F)c(N3CCNCC3)c(F)c21 | Bacteria | 0.8
CCn1cc(C(=O)O)c(=O)c2c(N)c(F)c(N3CCNCC3)cc21 | Bacteria | 0.6
NC1CCN(c2c(F)cc3c(=O)c(C(=O)O)cn(C4CC4)c3c2Cl)C1 (stereo in doubt; 1h-4) | Bacteria | 0.029
CCn1cc(C(=O)O)c(=O)c2c(N)c(F)c(N3CCNC(C)C3)c(F)c21 (stereo not given) | Bacteria | 0.6
CCNCC1CCN(c2c(F)c(N)c3c(=O)c(C(=O)O)cn(CC)c3c2F)C1 (stereo not given) | Bacteria | 1.05

---

Listing: MIC of selected molecules
# System: Staphylococcus aureus
# PROTOCOL: Antibacterial activity was determined against gram positive organism, Staphylococcus aureus UC76
# Format: functional
# EXPERIMENTAL_PARAMETERS: Staphylococcus aureus; read-out: MIC

MOLECULE | ASSAYED_TARGET | QUANTITY_UNIT | MIC
Nc1c(F)c(N2CCNCC2)c(Cl)c2c1c(=O)c(C(=O)O)cn2C1CC1 | Staphylococcus aureus | µg/mL | 0.025
CCNCC1CCN(c2cc3c(c(N)c2F)c(=O)c(C(=O)O)cn3C2CC2)C1 (stereo not drawn) | Staphylococcus aureus | µg/mL | 0.025
CC1CN(c2c(F)c(N)c3c(=O)c(C(=O)O)cn(C4CC4)c3c2F)CCN1 (stereo not drawn) | Staphylococcus aureus | µg/mL | 0.025

---

# System: Staphylococcus aureus
# PROTOCOL: Antibacterial activity was determined against gram positive organism, Staphylococcus aureus UC76
# Format: functional
# EXPERIMENTAL_PARAMETERS: Staphylococcus aureus; read-out: MIC
Listing: MIC of selected compounds

COMPOUND | MIC [µg/mL]
CCn1cc(C(=O)O)c(=O)c2c(N)c(F)c(N3CCC(N)C3)c(F)c21 (stereo not given) | 0.2
CC1CN(c2cc3c(c(N)c2F)c(=O)c(C(=O)O)cn3C2CC2)CCN1 (stereo not given) | 0.05
CC1CN(c2c(F)c(N)c3c(=O)c(C(=O)O)cn(C4CC4)c3c2Cl)CC(C)N1 (stereo not given) | 0.025
CCNCC1CCN(c2cc3c(cc2F)c(=O)c(C(=O)O)cn3C2CC2)C1 (stereo not given) | 0.013
CC1CN(c2cc3c(cc2F)c(=O)c(C(=O)O)cn3C2CC2)CC(C)N1 (stereo not given) | 0.05
CCNCC1CCN(c2c(F)c(O)c3c(=O)c(C(=O)O)cn(CC)c3c2F)C1 (stereo not given) | 0.05
CCn1cc(C(=O)O)c(=O)c2c(N)c(F)c(N3CCNCC3)cc21 | 0.05
C[C@@H]1CN(c2c(F)c(N)c3c(=O)c(C(=O)O)cn(C4CC4)c3c2F)C[C@H](C)N1 [SPARFLOXACIN] | 0.013
CC1CN(c2c(F)c(N)c3c(=O)c(C(=O)O)cn(C4CC4)c3c2Cl)CCN1 (stereo not given) | 0.025
CCNCC1CCN(c2c(F)cc3c(=O)c(C(=O)O)cn(C4CC4)c3c2F)C1 (stereo not given) [PD-117558] | 0.013

---

# System: Streptococcus pneumoniae
# PROTOCOL: Antibacterial activity was determined against gram positive organism, Streptococcus pneumoniae SV-1
# Format: functional
# EXPERIMENTAL_PARAMETERS: Streptococcus pneumoniae; read-out: MIC
PROPERTY_MEASURED: MIC (µg/mL)

COMPOUND | PROPERTY_MEASURED | RESULT_VALUE
Nc1c(F)c(N2CCC(N)C2)cc2c1c(=O)c(C(=O)O)cn2C1CC1 (centres undefined) | MIC | 0.025
C[C@@H]1CN(c2c(F)c(N)c3c(=O)c(C(=O)O)cn(C4CC4)c3c2F)C[C@H](C)N1 [SPARFLOXACIN] | MIC | 0.05
CCNCC1CCN(c2c(F)cc3c(=O)c(C(=O)O)cn(CC)c3c2F)C1 (centres undefined) [MERAFLOXACIN] | MIC | 0.1
CCn1cc(C(=O)O)c(=O)c2c(N)c(F)c(N3CCNCC3)c(F)c21 | MIC | 1.6
CCn1cc(C(=O)O)c(=O)c2c(O)c(F)c(N3CCC(N)C3)c(F)c21 (centres undefined) | MIC | 1.6
Nc1c(F)c(N2CCNCC2)cc2c1c(=O)c(C(=O)O)cn2C1CC1 | MIC | 0.1
CCNCC1CCN(c2c(F)c(N)c3c(=O)c(C(=O)O)cn(CC)c3c2F)C1 (centres undefined) | MIC | 0.2
CCn1cc(C(=O)O)c(=O)c2c(N)c(F)c(N3CC(C)NC(C)C3)c(F)c21 (centres undefined) | MIC | 12.5
O=C(O)c1cn(C2CC2)c2cc(N3CCNCC3)c(F)cc2c1=O [CIPROFLOXACIN] | MIC | 0.8
CCn1cc(C(=O)O)c(=O)c2cc(F)c(N3CCNCC3)c(F)c21 | MIC | 3.1
CCn1cc(C(=O)O)c(=O)c2c(O)c(F)c(N3CCNC(C)C3)c(F)c21 (centres undefined) | MIC | 12.5
Nc1c(F)c(N2CCNCC2)c(F)c2c1c(=O)c(C(=O)O)cn2C1CC1 | MIC | 0.05
CCn1cc(C(=O)O)c(=O)c2cc(F)c(N3CCC(N)C3)c(F)c21 (centres undefined) | MIC | 0.4
CC1CN(c2c(F)cc3c(=O)c(C(=O)O)cn(C4CC4)c3c2F)CC(C)N1 (centres undefined) | MIC | 0.4
